Molecular target: T1, 4H2648-AA
T1 chain: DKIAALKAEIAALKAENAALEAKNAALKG
Assay: two-hybrid library CCmax;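 also: natural log of median RNA to DNA barcode read ratio; higher means stronger binding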
Settings: mean of both orientations
Returns: string. Value is class 1 if measured interaction score is below -0.8, and class 0 if it is greater than or equal to it.

Recorded results for 2 binders are shown here.
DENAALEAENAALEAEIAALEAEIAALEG [4H1153-AA]; class 1
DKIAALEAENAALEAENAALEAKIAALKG [4H2198-AA]; class 1

Query: Strictly below -0.8 in interaction score? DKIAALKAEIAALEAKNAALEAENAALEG [4H2611-AA]
Response: class 0

Query: Next entry: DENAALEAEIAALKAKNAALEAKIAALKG [4H1142-AA]
Response: class 0

Query: Next: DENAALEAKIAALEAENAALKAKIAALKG [4H1310-AA]
Response: class 1

Query: Here is the next binder: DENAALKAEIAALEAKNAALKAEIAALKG [4H1594-AA]
Response: class 0

Query: // next record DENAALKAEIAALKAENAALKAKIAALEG [4H1629-AA]
Response: class 1

Query: Ok, now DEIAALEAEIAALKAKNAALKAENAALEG [4H123-AA]
Response: class 0

Query: Then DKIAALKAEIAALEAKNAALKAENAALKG [4H2620-AA] ?
Response: class 0

Query: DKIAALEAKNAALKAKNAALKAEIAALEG [4H2553-AA] , same question.
Response: class 0

Query: Now the same for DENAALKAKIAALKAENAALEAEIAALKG [4H1874-AA]
Response: class 1

Query: Do the same for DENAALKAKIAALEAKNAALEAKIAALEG [4H1845-AA] please
Response: class 1

Query: Consider next the binder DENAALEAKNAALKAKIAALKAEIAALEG [4H1513-AA] in the same way.
Response: class 1

Query: Can you check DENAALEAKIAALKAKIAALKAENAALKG [4H1388-AA] next?
Response: class 0

Query: Input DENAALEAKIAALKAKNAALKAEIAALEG [4H1401-AA]
Response: class 0
